Below, each entry is listed alongside its reported TGI.
System: LXFL 529 NSCLC
Experiment: NCI tumour cell line growth inhibition, 48 h

COMPOUND: N#CCCN(c1ccc(C=Nc2ccccc2Cl)cc1)S(=O)(=O)c1ccccc1
TGI: > 100 µM
--
COMPOUND: Nc1nc2n[nH]nc2c(=O)[nH]1
TGI: > 100 µM
--
COMPOUND: NC(CCC(=O)NC(CSC(=O)N(O)c1ccccc1)C(=O)NCC(=O)O)C(=O)O (stereo not drawn)
TGI: > 1000 µM

* * *

Tested on: NCI/ADR-RES ovarian
Assay: NCI tumour cell line growth inhibition, 48 h
RECORDED METRIC: TGI

COMPOUND: CC(NCCC(=O)N(CCC(=O)N(CCC(=O)N(CCC(=O)N(CCC(=O)N(CCC(=O)N(CCC(=O)N(CCC(=O)N(CCC(=O)N(CCC(=O)O)[C@H](C)c1ccccc1)[C@H](C)c1ccccc1)[C@H](C)c1ccccc1)[C@H](C)c1ccccc1)[C@H](C)c1ccccc1)[C@H](C)c1ccccc1)[C@H](C)c1ccccc1)[C@H](C)c1ccccc1)[C@H](C)c1ccccc1)c1ccccc1 (some centres undefined)
RECORDED METRIC: TGI
ASSAY VALUE: > 75 µM

COMPOUND: O=C1CCCC1C(O)(C(F)(F)F)C(F)(F)F (centres undefined)
RECORDED METRIC: TGI
ASSAY VALUE: > 100 µM

COMPOUND: COc1ccc(-n2cc(-c3cc(OC)c(OC)c(OC)c3)nc2SCc2ccccc2)cc1OC
RECORDED METRIC: TGI
ASSAY VALUE: > 100 µM

COMPOUND: CN1CCCOC(c2ccc([N+](=O)[O-])cc2)O1 (centres undefined)
RECORDED METRIC: TGI
ASSAY VALUE: > 100 µM
